Each entry below carries its recorded self-cleavage.
B1: LINE1-full (parent)
chain: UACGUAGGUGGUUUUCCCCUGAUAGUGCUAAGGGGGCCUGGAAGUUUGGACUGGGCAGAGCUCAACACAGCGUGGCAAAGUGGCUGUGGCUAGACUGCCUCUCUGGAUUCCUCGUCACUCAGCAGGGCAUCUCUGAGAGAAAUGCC

# Variants of: B1
# assayExplanation: self-cleavage, relative activity (ratio to wild type); higher = more cleavage; in vitro, sequencing; the parent is a self-cleaving ribozyme
readoutName: self-cleavage

{"mutationNotation": "U26A A121U", "obsValue": 1.11}
{"mutationNotation": "U81C U112A", "obsValue": 1.42}
{"mutationNotation": "C19G C56U", "obsValue": 0.22}
{"mutationNotation": "A64C A107G", "obsValue": 0.36}
{"mutationNotation": "U23G U87A", "obsValue": 0.11}
{"mutationNotation": "U45C A136G", "obsValue": 1.5}
